B1: Twister Ribozyme (parent)
chain: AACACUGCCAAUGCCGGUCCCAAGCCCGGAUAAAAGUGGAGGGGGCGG

- Variants of: B1
- EXPERIMENT: self-cleavage, relative activity (ratio to wild type); higher = more cleavage; co-transcriptional
Measured self-cleavage of individual entries
I only need the number, thanks.

Example results:
- MUTATION_STRING: "C19U G28A"
  self-cleavage: 0.758
- MUTATION_STRING: "G38A G39U"
  self-cleavage: 0.142

## Task Look at this variant and give its reported self-cleavage. A34C G45C
## Result 0.0937

## Task Look at this variant and give its reported self-cleavage. A40U C46G
## Result 0.16

## Task Look at this variant and give its reported self-cleavage. A32G G39A
## Result 0.48

## Task Look at this variant and give its reported self-cleavage. C20A G42C
## Result 0.78

## Task Look at this variant and give its reported self-cleavage. G13U C14A
## Result 0.687

## Task Look at this variant and give its reported self-cleavage. C5A A35U
## Result 0.508

Each recorded value in this set is attributed to the RNAGym collection of RNA variant scans (doi:10.7554/elife.80360).
